Where do these numbers come from? They come from paper PMC7127791.

- Test system: Vero cells
- protocol.text: Cytotoxicity
- experimental.conditions: minimal cytotoxic concentration by microscopical inspection
Would you mind telling me the reported Cytotoxicity MCC of each entry?

What Cytotoxicity MCC value was documented for this compound, CCOC(=O)C1=C(C)NC(=O)NC1c1ccccc1Cl (stereo not shown) ?
>100 µM

What do you get for CCOC(=O)C1=C(C)NC(=O)NC1/C=C/c1ccccc1 (stereo not shown) ?
100 µM

What do you get for CCOC(=O)C1=C(C)NC(=O)NC1c1ccc(N(C)C)cc1 (stereo not shown) ?
100 µM

What do you get for NC(=O)c1ncn([C@@H]2O[C@H](CO)[C@@H](O)[C@H]2O)n1 [Ribavirin, reference compound] ?
>250 µM

What do you get for CCOC(=O)C1=C(C)NC(=O)NC1c1ccc(O)cc1 (stereo not shown) ?
>100 µM

What do you get for CCOC(=O)C1C2NC(=O)NC1(C)Oc1ccccc12 (stereo not shown) ?
>100 µM

What do you get for CCOC(=O)C1=C(C)NC(=O)NC1CC(C)C (stereo not shown) ?
>100 µM
